Where do these numbers come from? They come from patent US20100120681A1.

// reported koff per item
biological target: T1, hVEGF165 (R&D Systems) (human, UniProt P15692 27-191); experiment: SPR Biacore 3000, periplasmic extract over VEGF165-coated CM5 chip
T1 construct: mature; also called biotinylated hVEGF165
T1 sequence (P15692 other isoform, or with tags, fused parts or gaps): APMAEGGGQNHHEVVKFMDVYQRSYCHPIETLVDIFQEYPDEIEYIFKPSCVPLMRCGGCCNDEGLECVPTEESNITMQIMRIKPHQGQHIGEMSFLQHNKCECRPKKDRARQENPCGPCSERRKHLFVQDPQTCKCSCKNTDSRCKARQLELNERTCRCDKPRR
measurement-label: koff (s⁻¹)

binder | measurement-label | units-text | experimental-value
PVEGFPMP42C10 (VHH, tested as periplasmic extract; not shown: C-terminal c-myc tag and (His)6 tag from the vector) VHH: EVQLVESGGGLVQAGGALRLSCAVSGRTFESYRMGWFRQAPGKEREFVSLINWSSGKTIYADSVKGRFTISGDNAKDTVYLEMNSLKPEDTAVYYCAVGRAWSGSYYSALAYQYWGQGTQVTVSS | koff | s⁻¹ | 0.0168
PVEGFPMP42B10 (VHH, tested as periplasmic extract; not shown: C-terminal c-myc tag and (His)6 tag from the vector) VHH: EVQLVESGGGLVQAGGSLRLSCTASGRALDTYTVTWFRQTPGKEREFVASNRWNAKPYTTDSVKGRFTISRDNAKNTVYLQMNSLKPEDTAVYYCAADLTTWADGPYRYWGQGTQVTVSS | koff | s⁻¹ | 0.000362
PVEGFPMP42C1 (VHH, tested as periplasmic extract; not shown: C-terminal c-myc tag and (His)6 tag from the vector) VHH: EVQLVESGGGLVQAGGSLRLSCAASGRTFSGVDVAWFRQAPGKEREFVAALAWSGIRTYYAVSVKGRFTISRGNPNDTVYLQMTSLKPEDTAVYYCATGRAYRGSDYYTDRIYDSWGQGAQVTVSS | koff | s⁻¹ | 0.00835
PVEGFPMP42F1 (VHH, tested as periplasmic extract; not shown: C-terminal c-myc tag and (His)6 tag from the vector) VHH: EVQLVESGGGLVQPGGSLRLSCAASGRALDTYTVTWFRQTPGKTREFVASVRWNAKPYTTDSVKGRFTISRDNAKNTVYLQMNSLKPEDTAVYYCAADPTTWADGPYRYWGQGTQVTVSS | koff | s⁻¹ | 0.000501
PVEGFPMP42E4 (VHH, tested as periplasmic extract; not shown: C-terminal c-myc tag and (His)6 tag from the vector) VHH: EVQLMESGGGLVQAGGSLRLSCAVSGRTFESYRMGWFRQAPGKEREFVSLINWSSGKTIYADSVKGRFTISGDNAKDTVYLEMNSLKPEDTAVYYCAVGRAWSGSYYSALAYQYWGQGTQVTVSS | koff | s⁻¹ | 0.02
PVEGFPMP42C7 (VHH, tested as periplasmic extract; not shown: C-terminal c-myc tag and (His)6 tag from the vector) VHH: EVQLVESGGGLVQAGGALRLSCAASGRTFETYRMGWFRQAPGKEREFVALINWSSGTTIYADSVKGRFTISGDNAKDTVYLEMNSLKPEDTAVYYCAVGRRWSGSYYSALAYQYWGKGTQVTVSS | koff | s⁻¹ | 0.00151
PVEGFPMP42H5 (VHH, tested as periplasmic extract; not shown: C-terminal c-myc tag and (His)6 tag from the vector) VHH: EVQLVESGGGLVQAGGSLRLSCTASGRALDTYTVTWFRQTPGKEREFVASNRWNAKPYVTDSVKGRFTISRDNAKNTVYLQMNSLKPEDTAVYYCAADLTTWADGPYRYWGQGTQVTVSS | koff | s⁻¹ | 0.000528
PVEGFPMP42C5 (VHH, tested as periplasmic extract; not shown: C-terminal c-myc tag and (His)6 tag from the vector) VHH: KVQLVESGGGLVQAGGSLRLSCAASGRALDTYTVTWFRQTPGKEREFVASIRWNAKPYTTDSVKGRFTISRDNAKNTVYLQMNSLKPEDTAIYYCAADLTTWADGPYRYWGQGTQVTVSS | koff | s⁻¹ | 0.000641
PVEGFPMP42E3 (VHH, tested as periplasmic extract; not shown: C-terminal c-myc tag and (His)6 tag from the vector) VHH: EVQLVESGGGLVQAGGALRLSCAASGRTFETYRMGWFRQAPGKEREFVALINWSSGTTIYADSVKGRFTISGDNAKDTVYLEMNSLKPEDTAVYYCAVGRRWSGSYYSALAYQYWGQGTQVTVSS | koff | s⁻¹ | 0.0015
PVEGFPMP42E2 (VHH, tested as periplasmic extract; not shown: C-terminal c-myc tag and (His)6 tag from the vector) VHH: EVQLVESGGGLVQAGGSLRLSCAASGRALDTYTVTWFRQTPGKGREFLASIRWNAKPYTTDSVKGRFTMSRDNAKNTVYLQMNSLRPEDTAVYYCAADPTTWADGPYRYWGQGTQVTVSS | koff | s⁻¹ | 0.000311
PVEGFPMP42A5 (VHH, tested as periplasmic extract; not shown: C-terminal c-myc tag and (His)6 tag from the vector) VHH: EVQLVESGGGLVQAGGSLRLSCAASGRTFSGVDVAWFRQAPGKEREFVAALAWSGIRTYYAVSVKGRFTISRGDPNDTVYLQMTSLKPEDTAVYYCATGRASRTSDYYTDRIYDSWGQGAQVTVSS | koff | s⁻¹ | 0.00154
PVEGFPMP42G5 (VHH, tested as periplasmic extract; not shown: C-terminal c-myc tag and (His)6 tag from the vector) VHH: EVHLVESGGGLVQAGGSLRLSCAASGRALDTYTVTWFRQTPGKTREFVASVRWNAKPYTTDSVKGRFTISRDNAKNTVYLQMNSLKPEDTAVYYCAADPTTWADGPYRYWGQGTQVTVSS | koff | s⁻¹ | 0.000447
PVEGFPMP42H9 (VHH, tested as periplasmic extract; not shown: C-terminal c-myc tag and (His)6 tag from the vector) VHH: EVQLVESGGGLVQAGGALRLSCAASGRTFETYRMGWFRQAPGKEREFVALINWSSGTTVYADSVKGRFTISGDNAKDTVYLEMNSLKPEDTAVYYCAVGRRWSGSYYSALAYQYWGQGTQVTVSS | koff | s⁻¹ | 0.00149
PVEGFPMP42A3 (VHH, tested as periplasmic extract; not shown: C-terminal c-myc tag and (His)6 tag from the vector) VHH: EVPMVESGGGLVQAGGSLRLSCAASGRTFSGVDVAWFRQAPGKEREFVAALAWSGIRTYYAVSVKGRFTISRGDPNDTVYLQMTSLKPEDTAVYYCATGRASRTSDYYTDRIYDSWGQGAQVTVSS | koff | s⁻¹ | 0.00259
PVEGFPMP42F10 (VHH, tested as periplasmic extract; not shown: C-terminal c-myc tag and (His)6 tag from the vector) VHH: EVQLVESGGGLVQAGGSLRLSCAASGRTFSGVDVAWFRQATGKEREFVAALAWSGIRTYYAVSVKGRFTISRGDPNDTVYLQMTSLKPEDTAVYYCATGRASRTSDYYTDRIYDSWGQGAQVTVSS | koff | s⁻¹ | 0.00165
PVEGFPMP42D5 (VHH, tested as periplasmic extract; not shown: C-terminal c-myc tag and (His)6 tag from the vector) VHH: EVQLVESGGGLVHAGGALRLSCAASGRAFETYRMGWFRQAPGKEREFVALINWSSGTTVYADSVKGRFTISGDNAKDTVYLEMNSLKPEDTAVYYCAVGRRWSGSYYSALAYQYWGQGTQVTVSS | koff | s⁻¹ | 0.00147
